- MEASUREMENT_TARGET: Mushroom tyrosinase (Agaricus bisporus, UniProt O42713+Q00024+C7FF04+C7FF05)
- EXPERIMENT_DESCRIPTION: Inhibition of mushroom tyrosinase using L-Dopa as substrate preincubated for 10 mins followed by substrate addition and measured after 20 mins
# IC50 per entry

STRUCTURE_STRING: O=c1cc(-c2cccs2)oc2cc(Br)cc(Br)c12
MEASUREMENT_TARGET: Mushroom tyrosinase (Agaricus bisporus, UniProt O42713+Q00024+C7FF04+C7FF05)
UNIT_OF_MEASURE: µg/mL
IC50: 0.68
//
STRUCTURE_STRING: O=c1c(O)c(-c2cccc3ccccc23)oc2cc(Br)cc(Br)c12
MEASUREMENT_TARGET: Mushroom tyrosinase (Agaricus bisporus, UniProt O42713+Q00024+C7FF04+C7FF05)
UNIT_OF_MEASURE: µg/mL
IC50: 0.564
//
STRUCTURE_STRING: CN(C)c1ccc(-c2oc3cc(Br)cc(Br)c3c(=O)c2O)cc1
MEASUREMENT_TARGET: Mushroom tyrosinase (Agaricus bisporus, UniProt O42713+Q00024+C7FF04+C7FF05)
UNIT_OF_MEASURE: µg/mL
IC50: 0.5
